# TARGET_SYSTEM: hA2b/CHO (Homo sapiens (Human))
# Sequence (P29275 whole entry): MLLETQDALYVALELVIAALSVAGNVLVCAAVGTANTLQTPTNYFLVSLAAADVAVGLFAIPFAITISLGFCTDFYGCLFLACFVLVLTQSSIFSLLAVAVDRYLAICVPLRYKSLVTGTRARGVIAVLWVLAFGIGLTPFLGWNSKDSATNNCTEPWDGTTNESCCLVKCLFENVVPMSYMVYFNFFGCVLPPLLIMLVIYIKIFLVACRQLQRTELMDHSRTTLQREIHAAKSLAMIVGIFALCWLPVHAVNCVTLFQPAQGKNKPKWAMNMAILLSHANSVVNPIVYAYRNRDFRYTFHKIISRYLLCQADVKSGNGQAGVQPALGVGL
# PROCEDURE_DETAILS: cAMP inhibition assay in hA2b/CHO cells, 10 μM adenosine;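 further: cells exposed to compound 30 min at 37 °C, then stimulated with adenosine a further 30 min, cAMP read after 60 min at room temperature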
# Type: cell-based
# CONDITION_DESCRIPTION: read-out: cAMP & FLIPR IC50 (nM) hA2b
Threshold-based label: IC50 under 1000 nM gives class 1, IC50 not under 1000 nM gives class 0.

Query block: # TODO verify IC50 < 1000 nM strictly for this compound: COc1ccccc1CNC(=O)c1nc(-c2cc(C)nc(C)c2)c(-c2ccc(C)o2)nc1N
Result block: class 0

Query block: Record Cn1cc(-c2nc(C(=O)NCc3ncccc3CO)c(N)nc2-c2ncco2)ccc1=O : is its IC50 strictly below 1000 nM?
Result block: class 0

Query block: Report whether reported IC50 is lower than 1000 nM (strictly) for Cc1cnc2ccc(-c3nc(C(=O)NCC4CN(C)CCO4)c(N)nc3-c3ncco3)cn12 (racemic)
Result block: class 1

Query block: Does this compound meet the criterion IC50 < 1000 nM? COc1ccccc1CNC(=O)c1nc(-c2ccc(=O)n(C(F)F)c2)c(-c2ccc(F)cc2)nc1N
Result block: class 1

Query block: Quick check: does Cc1cc(-c2nc(C(=O)NCc3c(F)cccc3F)c(N)nc2-c2ncco2)cc(C)n1 have IC50 under 1000 nM?
Result block: class 0

Query block: In the record for Cc1cnc2ccc(-c3nc(C(=O)NCC4CCCCO4)c(N)nc3-c3ncco3)cn12 (single isomer, unassigned; isomer 1) [Example 165] , is IC50 less than 1000 nM?
Result block: class 1

Query block: For Cc1cc(-c2nc(C(=O)NCc3ncccc3F)c(N)nc2-c2ccc(F)cc2)cc(C)n1 , is the recorded IC50 below the cut-off of 1000 nM?
Result block: class 0

Query block: Dear reviewer, please state whether COc1ccccc1CNC(=O)c1nc(-c2cc(C)nc(N)c2)c(-c2ccc(F)cc2)nc1N has IC50 strictly beneath 1000 nM.
Result block: class 1

Query block: Given the entry CO[C@H]1C[C@@H](NC(=O)c2nc(-c3ccc4ncc(C)n4c3)c(-c3ncco3)nc2N)C1 , would its reported IC50 be below 1000 nM?
Result block: class 1

Query block: Consider Cc1cnc2ccc(-c3nc(C(=O)NCC4CN(C)CCO4)c(N)nc3-c3ccc(F)cc3)cn12 (single isomer, unassigned; isomer 2) [Example 250] . Does its IC50 lie strictly below 1000 nM?
Result block: class 1

Query block: Criterion: IC50 strictly below 1000 nM. Is it met by Cc1cc(-c2nc(C(=O)NCc3ccccc3C(F)F)c(N)nc2-c2ccc(F)cc2)cc(C)n1 ?
Result block: class 0

Query block: Please state whether IC50 is below 1000 nM for CCc1cnn2ccc(-c3nc(C(=O)NC[C@H]4CCCN4C)c(N)nc3-c3ncco3)cc12
Result block: class 0

Query block: Hi there! Is IC50 for Cn1cnc2ccc(-c3nc(C(=O)NCc4ncccc4OCC(N)=O)c(N)nc3-c3ccc(F)cc3)cc21 below 1000 nM, do you know?
Result block: class 1

Query block: Please state whether IC50 is below 1000 nM for Cc1cnc2ccc(-c3nc(C(=O)N[C@@H]4CCN(C)C4)c(N)nc3-c3ccc(F)cc3)cn12
Result block: class 0

Query block: Problem: For the compound Cc1cc(-c2nc(C(=O)NCc3c(F)cccc3F)c(N)nc2-c2ccc(C)o2)cc(C)n1 , is IC50 under 1000 nM?
Result block: class 0

Query block: Would you kindly verify if IC50 of Cn1cc(-c2nc(C(=O)NCc3ccccc3F)c(N)nc2-c2ncco2)ccc1=O is strictly less than 1000 nM?
Result block: class 1

Query block: Say whether its IC50 is strictly beneath 1000 nM. Entry: COc1cc(F)ccc1CNC(=O)c1nc(-c2cc(C)nc(C)c2)c(-c2ccc(F)cc2)nc1N
Result block: class 0

Query block: Is the reported IC50 for CN1CCC[C@H]1CNC(=O)c1nc(-c2ccc3ncn(C)c3c2)c(-n2nccn2)nc1N strictly below 1000 nM?
Result block: class 0
